- target_under_test: CNBP (Homo sapiens, UniProt P62633 1-177)
- Sequence (P62633 whole entry): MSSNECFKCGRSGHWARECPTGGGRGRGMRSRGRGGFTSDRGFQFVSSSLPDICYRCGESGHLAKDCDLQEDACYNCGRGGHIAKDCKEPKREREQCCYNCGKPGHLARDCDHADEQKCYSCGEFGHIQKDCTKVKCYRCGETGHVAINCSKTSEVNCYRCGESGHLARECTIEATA
- method: EMSA; 100 mM K+; apparent Kd, SEM, n=3; EMSA: 20 mM HEPES pH 8.0, 10 mM MgCl2, 1 mM EDTA, 0.5 ug/ul heparin, 1 mM DTT, 1 ug/ul BSA, 10% glycerol, 100 mM KCl or LiCl, probe 0.75 uM, 30 min at 37 C; CNBP diluted in 50 mM Tris-HCl pH 7.5, 300 mM NaCl, 1 mM DTT, 5 mM imidazole, 0.1 mM ZnCl2
- reported_conditions: protein: recombinant; tags: tag-free (from pET-32a-TEV-CNBP, tag removed); label: none (SYBR Gold stain); G4
measured_quantity: Kd (nM)
Answers are plain numbers, in nM.

The reported Kd of the binder TGCTGGTGGTCATGGGGGAGTGGAGAGCAT (structured_DNA) [Dr2393 folded as G4 (K+)] was 331
